// provenance: the supplement of paper PMC12645437

# systemUnderTest: T1, CRBN, Q96SW2;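 further: pooled lentiviral library of zinc finger degron-EGFP fusions in mCherry-positive Jurkat cells, FACS-sorted after compound exposure, with degron abundance counted by next-generation sequencing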
# T1 chain: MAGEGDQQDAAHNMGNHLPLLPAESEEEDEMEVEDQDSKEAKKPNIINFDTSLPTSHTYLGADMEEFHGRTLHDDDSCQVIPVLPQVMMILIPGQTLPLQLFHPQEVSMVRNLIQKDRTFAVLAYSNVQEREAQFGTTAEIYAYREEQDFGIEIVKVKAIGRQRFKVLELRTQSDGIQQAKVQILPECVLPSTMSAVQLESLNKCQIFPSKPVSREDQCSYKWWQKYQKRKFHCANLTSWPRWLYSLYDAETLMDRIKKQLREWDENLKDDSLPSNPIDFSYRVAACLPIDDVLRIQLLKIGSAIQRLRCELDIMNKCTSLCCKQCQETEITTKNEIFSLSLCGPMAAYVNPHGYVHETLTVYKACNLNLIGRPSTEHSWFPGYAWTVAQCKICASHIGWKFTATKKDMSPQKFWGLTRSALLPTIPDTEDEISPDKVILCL
# protocolDetails: log2 fold change of degron read counts, EGFP-low vs EGFP+ sorted cells (limma voom), compound-induced degradation; higher = more compound-induced degradation of the degron-EGFP fusion; degrons are variants of IKZF1/3 zinc finger 2; compound dose not given here
# assaySetup: Jurkat; 18 h; compound: compound 22 (5-morpholino-thalidomide)
Whole data set: some 8,300 sequences, median “log2 fold change of degron read counts, EGFP-low vs EGFP+ sorted cells (limma voom), compound-induced degradation” near -1.1, cut for the highest 2% near 3.2. Only a selection was taken, and the highest values are over-represented in it overall.
reportedMetric: log2 fold change of degron read counts
# answer = number (no unit)

primarySequence	log2 fold change of degron read counts
FRCNQCGHLFTQKGNLLRHIKL [46F_47R_49N_50Q_52G_53H_54L_55F_67L_, Q9UKT9]	-2.82
FFCPQCGAHFTQKGNLLRHIKL [46F_47F_49P_50Q_52G_53A_54H_55F_67L_, Q9UKT9]	0.455
LCCNQCGFCCTQKGNLLRHIKL [46L_47C_49N_50Q_52G_53F_54C_55C_67L_, Q9UKT9]	-2.67
FFCDQCGANFTQKGNLLRHIKL [46F_47F_49D_50Q_52G_53A_54N_55F_67L_, Q9UKT9]	-0.255
FKCSVCGHMFTQKGNLLRHIKL [46F_47K_49S_50V_52G_53H_54M_55F_67L_, Q9UKT9]	-3

Could you share which log2 fold change of degron read counts value was measured for FWCNQCGRTFTQKGNLLRHIKL [46F_47W_49N_50Q_52G_53R_54T_55F_67L_, Q9UKT9] ?
-1.36

Could you share which log2 fold change of degron read counts value was measured for FTCPICGHHFTQKGNLLRHIKL [46F_47T_49P_50I_52G_53H_54H_55F_67L_, Q9UKT9] ?
-2.32
